Assay: Pharmacokinetic study of sotorasib in rats after oral administration (HPLC-MS/MS of plasma)
Type: in vivo
Details: male, Sprague-Dawley, rat, rats, 10 mg/kg, n = 6, mean ± SD
Readout Name: AUC(0-inf) (ng·h/mL)
Return type: number; implicit unit ng·h/mL.

-- ask # get_value(readout='AUC(0-inf)', item= C=CC(=O)N1CCN(c2nc(=O)n(-c3c(C)ccnc3C(C)C)c3nc(-c4c(O)cccc4F)c(F)cc23)[C@@H](C)C1 [Sotorasib] )
-- reply 463

* * *

Assay: Pharmacokinetic study of sotorasib in rats after oral administration (HPLC-MS/MS of plasma)
Type: in vivo
Conditions: male, Sprague-Dawley, rat, rats, 10 mg/kg, n = 6, mean ± SD, read-out: CL_F (apparent clearance) (converted)
Readout Name: CL/F (mL/min/kg)
State the answer as a number, implicitly in mL/min/kg.

-- ask Param item = `C=CC(=O)N1CCN(c2nc(=O)n(-c3c(C)ccnc3C(C)C)c3nc(-c4c(O)cccc4F)c(F)cc23)[C@@H](C)C1` ; retrieve measured CL/F.
-- reply 400

* * *

Assay: Pharmacokinetic study of sotorasib in rats after oral administration (HPLC-MS/MS of plasma)
Type: in vivo
Details: male, Sprague-Dawley, rat, rats, 10 mg/kg, n = 6, median (range)
Readout Name: Tmax (min)
Give the value in min but do not write min after it.

-- ask Quick check: Tmax of C=CC(=O)N1CCN(c2nc(=O)n(-c3c(C)ccnc3C(C)C)c3nc(-c4c(O)cccc4F)c(F)cc23)[C@@H](C)C1 [Sotorasib] ?
-- reply 30

* * *

Assay: Pharmacokinetic study of sotorasib in rats after oral administration (HPLC-MS/MS of plasma)
Assay type: in vivo
Settings: male, Sprague-Dawley, rat, rats, 10 mg/kg, n = 6, mean ± SD, read-out: MRT (mean residence time)
Readout Name: MRT (h)
Express your answer in h, writing the number without its unit.

-- ask For the compound `C=CC(=O)N1CCN(c2nc(=O)n(-c3c(C)ccnc3C(C)C)c3nc(-c4c(O)cccc4F)c(F)cc23)[C@@H](C)C1` , what MRT is on record?
-- reply 1.89

* * *

Test: Pharmacokinetic study of sotorasib in rats after oral administration (HPLC-MS/MS of plasma)
Assay type: in vivo
Settings: male, Sprague-Dawley, rat, rats, 10 mg/kg, n = 6, mean ± SD
Readout Name: AUC(0-t) (ng·h/mL)
The reply should be a number in ng·h/mL, with the unit left off.

-- ask Endpoint output: AUC(0-t) of C=CC(=O)N1CCN(c2nc(=O)n(-c3c(C)ccnc3C(C)C)c3nc(-c4c(O)cccc4F)c(F)cc23)[C@@H](C)C1 [Sotorasib] . Value?
-- reply 457
